Record form. Attribute: Fold Activity. Fill in for each entry.
assay: Saturation mutagenesis of SEQ ID NO:109: dicamba decarboxylation activity of point mutants (CO2 released), fold of backbone (Tables 7, 8, Megatable 1); conditions: decarboxylation activity (CO2 released) of point mutant vs unmutated backbone protein; backbone SEQ ID NO: 109
Enter your answer as a number in fold; do not include the unit.

input: # return recorded Fold Activity for input 92 (protein, listed as Chitinophaga pinensis) MARIVTLEEHVSFPEMTALLPEEILKNRKQSGAALQMQEKLADITGERLTSMKAAGISMQVLSVENTDVYLLPDSLAPAFAAKYNDLLADKISSHSDAFAAFAMLPMTVPEAAADELERAVKTHGFCGAMIKGLINGVFLDAPKFAPVFACAEKLGVPLYIHPGIPPKEVIDAYYSNVGDTKGPNEAIACYGWGWHSETAIHILRLLAAGIFDKYPQLNIIIGHMGEMLPMMWERSNRVFQPGNNGKNQRTLIETFRKQLYITTSGIFTQPPLQIAIDTIGIDNILFSIDYPFSSNQMGIDFLTKAALPAEQLAKMAHGNADRILKF
output: 1.7

input: Answer with the recorded Fold Activity of 52 (protein, listed as Streptomyces sp.) MAKIIALEEHFSDPAVAKAGAARAQALSPGFAASYSPASGLPYSPSPEVLENLAEKRLADMDAGGITMQVLSGLSAQTVPADVAPALVAGSNDKAAAAVRAHPDRFAAFAALPTAAPEAAVAELDRSVNELGFVGTLIMGRTEGEFLDAPRFEPILARAAALKVPVFLHPGVPPREITDSNYAAGLPTGIGTRLQTAAWGWHQETAVHFLHLVHSGVLDRYPDLQFILGHWGETIPFYLDRVDEALPQRATGLDRSFHEYFRENVYLAPSGMWSQAQLRFCLETFPLERIVFAVDYPFIGNEGAVPFLEKAELPEADKRKIAHENAERLLGL only.
output: 1.9
